Source: the supplement of paper PMC6555819

Test system: LXRb:RXRa (NR concentration 270 nM, RXRa partner concentration 90 nM)
measurement-protocol: PBM binding z-score (relative to random genomic background probes); higher = stronger binding; sequences stand for … in GC…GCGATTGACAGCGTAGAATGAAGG
1 means recorded PBM binding z-score is 2 or above; -1 means it is below 2.

{"columns": ["residues", "classification"],
 "data": [
  ["TAGCCTAGGTCAGATCGGGCCGGTATACGCTATA", -1]
]}

In plain terms: is recorded PBM binding z-score at least 2 for TAGCCTAGGTCATTGAGCCAGTATAGTACGCATC ?
1

Try TCGAGTAGGTTACCAATGGGGCACTCAGCTTTCT next.
-1

Try CCTATTAGTTGACCAGAAGGGCAACCGAAGCTCG next.
-1

Try TCTGCTAGGTCAACTATGGTCAGCTAATCTGCTA next.
1

Try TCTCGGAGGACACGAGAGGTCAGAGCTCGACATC next.
1

Try CGAACTAGGTCGTTGACAGGACAGTGAATAGTAA next.
-1

Try CCTCGGAGGACAACATGAGGTCAGAGCTGCCAGA next.
1

Try CCTACTGGGCCATTCAGAGGTCATGGATCATATG next.
1

Try CCTACTCGGCCATTCAGAGGTCATTGATCATATG next.
1

Try CAAACTAGGTCAAGAGGTCAGAGTCCGCTTCCCG next.
1

Try GCGACTGGGGCAAAGCAGGTTCCCATAAGGTTGG next.
-1

Try TCTGGGAGGACACGAAGGTCAGAGCTTTCCAGAG next.
-1

Try TAGCCTAGGCCAGATCGGGCCAGTATACGCTATA next.
-1

Try CCTTACGGGTCACTCCAGGTTATAGGATCGGAGT next.
1

Try TCATATAGGTAAAGGTTAAAGTCGAACGATATGA next.
1

Try ATCGAAAGGTCGACGGGGTGAGTATACACCGTTT next.
1

Try TAGCCTAGGTCATTCAGGGGCCAGTATCGAAAGC next.
1

Try TCTAGGTGGTCACGGAGGTCACACACGACGGGTA next.
1

Try ATCTCTAGGGAACCAAGTTCAGTGAATGCCGAAC next.
-1
